Hey, just so you know, these numbers are from patent US12123009B2.

Entries annotated with measured coloration score
Tested on: soybean plantlets
Assay Info: High-throughput soybean screening for herbicide tolerance (plantlets)
Assay type: in vivo, soybean (A3555)
Set-up: key: 0 for poor tolerance, high damage, low green coloration; 1 for some tolerance, average damage, moderate green coloration; 2 for good tolerance, low damage, high green coloration
Reported Conditions: TP29; S-3100 spray five weeks post-transformation, scored day four
Lab note: write the figure by itself, no unit.

H_N90: microbial HemG protoporphyrinogen oxidase, SEQ ID NO:1 (SEQ ID NO:11 lacking start methionine; variants 18, 19) (protein, listed as Enterobacter cloacae) MKALVLYSTRDGQTHAIASYIASCMKEKAECDVIDLTHGEHVNLTQYDQVLIGASIRYGHFNAVLDKFIKRNVDQLNNMPSAFFCVNLTARKPEKRTPQTNPYVRKFLLATPWQPALCGVFAGALRYPRYRWIDKVMIQLIMRMTGGETDTSKEVEYTDWEQVKKFAEDFAKLSYKKAL ... 1

Prompt: If you can, please state the reported coloration score value of H_N50: microbial HemG protoporphyrinogen oxidase, SEQ ID NO:7 (SEQ ID NO:16 lacking start methionine) (protein, listed as Shimwellia blattae) MKTLILFSTRDGQTHKIARHIAGVLEEQGKACELVDLLQPGEPDWSTVECVVLGASIRYGHFHKSFIRFVNTHAQRLNNMPGALFTVNLVARKPEKQSPQTNSYTRKFLAASPWQPQRCQVFAGALRYPRYSWYDRMMIRLIMKMAGGETDTRKEVEYTDWQSVTRFAREIAQLPGETR .
Response: 1
